Target protein (sequence): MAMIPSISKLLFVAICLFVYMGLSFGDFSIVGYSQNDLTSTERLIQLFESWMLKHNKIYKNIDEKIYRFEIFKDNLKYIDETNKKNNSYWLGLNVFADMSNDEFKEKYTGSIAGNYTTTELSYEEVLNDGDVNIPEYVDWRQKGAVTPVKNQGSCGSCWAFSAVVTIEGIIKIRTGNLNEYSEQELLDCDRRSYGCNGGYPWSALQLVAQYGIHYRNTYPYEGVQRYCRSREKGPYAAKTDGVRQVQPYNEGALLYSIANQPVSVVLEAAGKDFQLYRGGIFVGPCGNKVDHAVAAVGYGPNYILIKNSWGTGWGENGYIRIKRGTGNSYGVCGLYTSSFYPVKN
pKi: −log10 of the molar value. Non-standard residues stand in square brackets, D forms with d. Residues, ends and D or L forms follow the SMILES beside them. *: point of attachment. 1Nal = N[C@@H](Cc1cccc2ccccc12)C(=O)O; Cbz = O=C(OCc1ccccc1)*; NHBn = c1ccc(CN*)cc1; azaGly = NNC(=O)O
Mark N for pKi values under 8, and Y for everything at or above.

compound="CC[C@H](C)[C@H](NC(=O)NNC(=O)[C@@H](NC(=O)[C@H](CC(C)C)NC(=O)[C@H](C)NC(=O)OCc1ccccc1)[C@@H](C)CC)C(=O)N[C@H](C(=O)OC)C(C)C (Cbz-ALI[azaGly]IV-OMe)" assigned_category=Y
compound="CC[C@H](C)[C@H](NC(=O)NNC(=O)[C@@H](NC(=O)[C@H](CC(C)C)NC(=O)[C@H](CCCN=C(N)N)NC(=O)OCc1ccccc1)C(C)C)C(=O)N[C@H](C(=O)OC)C(C)C (Cbz-RLV[azaGly]IV-OMe)" assigned_category=Y
compound=CC(=O)N[C@@H](Cc1ccccc1)C(=O)NNC(=O)N[C@H](C(=O)NCc1ccccc1)C(C)C assigned_category=N
compound=CC(=O)N[C@@H](Cc1ccccc1)C(=O)NNC(=O)N[C@H](C(=O)OCc1ccccc1)C(C)C assigned_category=N
compound="CC[C@H](C)[C@H](NC(=O)NNC(=O)[C@H](Cc1cccc2ccccc12)NC(=O)[C@H](CC(C)C)NC(=O)[C@H](C)NC(=O)OCc1ccccc1)C(=O)N[C@H](C(=O)OC)C(C)C (Cbz-AL[1Nal][azaGly]IV-OMe)" assigned_category=Y
compound=CCOC(=O)NNC(=O)[C@@H](NC(=O)[C@H](CC(C)C)NC(=O)OC(C)(C)C)C(C)C assigned_category=N
compound="CC(C)C[C@H](NC(=O)[C@H](CCCNC(=N)N)NC(=O)OCc1ccccc1)C(=O)N[C@H](C(=O)NNC(=O)N[C@@H](Cc1c[nH]c2ccccc12)C(=O)N[C@H](C(=O)N[C@@H](C)C(N)=O)C(C)C)C(C)C (HELM PEPTIDE1{[O=C(OCc1ccccc1)[*:2]].R.L.V.[O=C(NN[*:1])[*:2]].W.V.A.[am]}$$$$V2.0)" assigned_category=N
compound="CC(C)C[C@H](NC(=O)[C@H](CCCNC(=N)N)NC(=O)OCc1ccccc1)C(=O)N[C@H](C(=O)NNC(=O)N[C@@H](C)C(=O)NCC(N)=O)C(C)C (HELM PEPTIDE1{[O=C(OCc1ccccc1)[*:2]].R.L.V.[O=C(NN[*:1])[*:2]].A.G.[am]}$$$$V2.0)" assigned_category=Y
compound="CC[C@H](C)[C@H](NC(=O)NNC(=O)[C@@H](NC(=O)[C@H](CC(C)C)NC(=O)[C@H](C)NC(=O)OCc1ccccc1)[C@@H](C)CC)C(=O)N[C@H](C(=O)NCc1ccccc1)C(C)C (Cbz-ALI[azaGly]IV-NHBn)" assigned_category=Y
compound="CC[C@H](C)[C@H](NC(=O)NNC(=O)[C@H](Cc1cnc[nH]1)NC(=O)[C@H](CC(C)C)NC(=O)[C@H](C)NC(=O)OCc1ccccc1)C(=O)N[C@H](C(=O)OC)C(C)C (Cbz-ALH[azaGly]IV-OMe)" assigned_category=Y
compound="CC[C@H](C)[C@H](NC(=O)NNC(=O)[C@H](Cc1ccc(OC)cc1)NC(=O)[C@H](CC(C)C)NC(=O)[C@H](C)NC(=O)OCc1ccccc1)C(=O)N[C@H](C(=O)OC)C(C)C (Cbz-ALY(Me)[azaGly]IV-OMe)" assigned_category=Y

Values compiled from ChEMBL document CHEMBL1136001.
